List of zone of inhibition at 2 % values.
Tested on: M. furfur DSM 6170
experiment: Disc-diffusion assay, perfumery materials in DMSO, M. furfur
Format: cell-based, Malassezia furfur
run.conditions: Malassezia furfur, DSM6170, 72 h
Use mm as the unit, but write only the number.

Completed entries (count: 5):
Query: State the recorded zone of inhibition at 2 % for this entry: CC/C=C\CC/C=C/C=O [(2E,6Z)-2,6-nonadienal]
Result: 13.5

Query: For the molecule shown here, CC(C)C1CCC(CO)CC1 (stereo not shown) [p-menthan-7-ol] , give the reported zone of inhibition at 2 %.
Result: 6.3

Query: May I ask what zone of inhibition at 2 % has been recorded for CCCCCCCCC/C=C/C=O [(2E)-2-dodecenal] ?
Result: 12.6

Query: What measured zone of inhibition at 2 % goes with `COC(=O)c1c(C)cc(O)c(C)c1O` ?
Result: 7

Query: Data request, read-out zone of inhibition at 2 %, for CCCCC(CC)CO (stereo not shown) [2-ethyl-1-hexanol]
Result: 7.6

More entries:
Query: Tell me the measured zone of inhibition at 2 % of CC(C)=CCC/C(C)=C/C=O [citral] , please.
Result: 8.6

Query: Query (molecule): `C/C(=C\c1ccc(C)cc1)CCC=O` ; field requested: zone of inhibition at 2 %
Result: 7.5

Query: // returns reported zone of inhibition at 2 % for input O=C/C=C/c1ccccc1 [cinnamaldehyde, (E)-3-phenyl-2-propenal]
Result: 16.5

Query: What value of measured zone of inhibition at 2 % is listed for CCCCCc1cc(C)ccn1 [4-methyl-2-pentylpyridine] ?
Result: 6.7

Query: Need zone of inhibition at 2 %, item CCCCCCCCC1CCC(=O)O1 (racemic) [gamma-dodecalactone, (+/−)-5-octyldihydro-2(3h)-furanone]
Result: 6.9

---

Reported Ratio of inhibition zone diameter (0.5% PRM + 0.1% PO) to 0.1% PO is given for each of the following compounds.
Tested on: M. restricta
experiment: Disc-diffusion assay, combinations with piroctone olamine (PO) in DMSO, M. restricta
Format: cell-based, Malassezia restricta
run.conditions: 4 days, ratio greater than 1.0 = boosting effect
Form rule: numeric answer, no unit written next to it.

Sample answers from the record:
Query: Returns the measured Ratio of inhibition zone diameter (0.5% PRM + 0.1% PO) to 0.1% PO for the input compound. Input: CCCCCCCCC/C=C/C=O [(2E)-2-dodecenal]
Result: 2.1

Query: What does the record list as Ratio of inhibition zone diameter (0.5% PRM + 0.1% PO) to 0.1% PO for CC/C=C\CC/C=C/C=O [(2E,6Z)-2,6-nonadienal] ?
Result: 3.4

Query: Item under review: COc1ccc(CC(C)C=O)cc1 (racemic) [para-anisyl propanal] . Reported Ratio of inhibition zone diameter (0.5% PRM + 0.1% PO) to 0.1% PO?
Result: 2.0

Query: Quick check: Ratio of inhibition zone diameter (0.5% PRM + 0.1% PO) to 0.1% PO of O=C/C=C/c1ccccc1 [cinnamaldehyde, (E)-3-phenyl-2-propenal] ?
Result: 3.4

Query: Entry `C/C(=C\c1ccc(C)cc1)CCC=O` : reported Ratio of inhibition zone diameter (0.5% PRM + 0.1% PO) to 0.1% PO = ?
Result: 1.2

Continue with the compound presented below.
Query: Which Ratio of inhibition zone diameter (0.5% PRM + 0.1% PO) to 0.1% PO value is on record for CCCCCCCCC(=O)O [nonanoic acid] ?
Result: 1.1

---

Test system: M. restricta ATCC MYA-4611
experiment: Disc-diffusion assay, perfumery materials in DMSO, M. restricta
Format: cell-based, Malassezia restricta
run.conditions: Malassezia restricta, 144 h
zone of inhibition at 1 % values for the molecules below.
// note: answer is a bare numeric in mm

Take a look at these entries with their results.
Query: For the molecule CCCCCCCCC/C=C/C=O [(2E)-2-dodecenal] , what zone of inhibition at 1 % is on record?
Result: 14.4

Query: Find the recorded zone of inhibition at 1 % belonging to CCCCCCO [Mix 1-hexanol, 1-hexanol] and report it.
Result: 6.7

Query: Which zone of inhibition at 1 % value is on record for CC(C)=CCC/C(C)=C/C=O [citral] ?
Result: 7.1

Query: Reported zone of inhibition at 1 % for CCCCCCCCCCO [Mix 1-decanol, 1-decanol] : what is it?
Result: 10

Query: What zone of inhibition at 1 % value was documented for this molecule, O=C/C=C/c1ccccc1 [cinnamaldehyde, (E)-3-phenyl-2-propenal] ?
Result: 34.5

Query: Find the recorded zone of inhibition at 1 % belonging to CC(C)c1cccc(C(C)CC=O)c1 (racemic) [floral butanal, (+/−)-3-(3-isopropylphenyl)butanal] and report it.
Result: 8.2

Query: Can you look up the measured zone of inhibition at 1 % of CC(C=O)Cc1ccc(C(C)C)cc1 (racemic) [cyclamen aldehyde] for me?
Result: 8.2

Query: Fill in the blank: the reported zone of inhibition at 1 % of CCCCC(CC)CO (centres unmarked) [2-ethyl-1-hexanol] is ____.
Result: 6.4

Query: Given the entry COc1ccc(CC(C)C=O)cc1 (racemic) [para-anisyl propanal] , report its measured zone of inhibition at 1 %.
Result: 14.3

Query: Any idea what its zone of inhibition at 1 % is? The molecule is `C/C(=C\c1ccc(C)cc1)CCC=O`
Result: 11.6

Others:
Query: Dear colleague, I am looking for the recorded zone of inhibition at 1 % of the following molecule: C=CCCCCCCCCC=O [Mix 10-undecenal, 10-undecenal]
Result: 12.7

Query: Which value of zone of inhibition at 1 % has been reported for CCCCCCC#CC(=O)OC [methyl octine carbonate, methyl 2-nonynoate] in the records?
Result: 6.7

Query: Look up zone of inhibition at 1 %: CCCCCCCCCCCCO [Mix 1-dodecanol, 1-dodecanol]
Result: 11.5

---

System: M. restricta
experiment: Disc-diffusion assay, additional perfumery materials in DMSO, M. restricta, 4 days
Assay type: cell-based, Malassezia restricta
run.conditions: Malassezia restricta, 96 h; Table 20; 0.5% in DMSO, 4 days; read-out: Inhibition zone diameter (mm) on M. restricta
parameter.measured: zone of inhibition at 0.5 % (mm)
A number alone suffices; assume mm.

Consider the following illustrative entries.
Query: Any idea what zone of inhibition at 0.5 % was measured for CC(C=O)c1ccccc1 (stereo not drawn) ?
Result: 7

Query: So what does the record say about zone of inhibition at 0.5 % for CC(C)c1cccc(C(C)CC=O)c1 (racemic) [floral butanal, (+/−)-3-(3-isopropylphenyl)butanal] ?
Result: 7.5

Query: What zone of inhibition at 0.5 % value was documented for this compound, CC(C)=CCCC(C)CC=O (racemic) [(+/−)-3,7-dimethyl-6-octenal] ?
Result: 7.3

Next:
Query: Query (compound): `COc1cc(C=O)ccc1OC(=O)C(C)C` ; field requested: zone of inhibition at 0.5 %
Result: 10.2

Query: I'd like to know its zone of inhibition at 0.5 %. The compound in question is CCCCCC/C=C/C=O [(E)-2-nonenal]
Result: 38

---

Tested on: M. restricta ATCC MYA-4611
experiment: Disc-diffusion assay, perfumery materials in DMSO, M. restricta
Type: cell-based, Malassezia restricta
run.conditions: Malassezia restricta, 144 h
Rule: zone of inhibition at 0.2 % under 7 mm gives False, otherwise True.

Query: Check this compound for zone of inhibition at 0.2 % at or above 7 mm: CCCCCc1cc(C)ccn1 [4-methyl-2-pentylpyridine]
Result: False

Query: Does CCCCCCC1CCCC(=O)O1 (stereo not shown) [delta-undecalactone, 6-hexyltetrahydro-2H-pyran-2-one] have a reported zone of inhibition at 0.2 % of at least 7 mm?
Result: False

Query: Hi, just wondering whether CCCCC[C@H]1C(=O)CC[C@@H]1CC(=O)OC (racemic) [methyl dihydrojasmonate] shows zone of inhibition at 0.2 % of 7 mm or higher.
Result: False

Query: Given the entry CC/C=C\CC/C=C/C=O [(2E,6Z)-2,6-nonadienal] , answer whether its zone of inhibition at 0.2 % meets or surpasses 7 mm.
Result: True

Query: Given CC(C)C1CCC(CO)CC1 (stereo not shown) [p-menthan-7-ol] , state whether its zone of inhibition at 0.2 % is at least 7 mm.
Result: False

Query: Form field: zone of inhibition at 0.2 % at least 7 mm? Entry: CCCCCCC#CC(=O)OC [methyl octine carbonate, methyl 2-nonynoate]
Result: False

Others:
Query: Is the recorded value of zone of inhibition at 0.2 % equal to or greater than 7 mm for this compound? CC(C)(C)c1ccc(CCC=O)cc1 [cyclamen propanal, 3-(4-tert-butylphenyl)propanal]
Result: False

Query: Could you please find out whether O=C/C=C/c1ccccc1 [cinnamaldehyde, (E)-3-phenyl-2-propenal] has zone of inhibition at 0.2 % that meets 7 mm or exceeds it?
Result: True

---

System: M. restricta
experiment: Disc-diffusion assay, additional perfumery materials in DMSO, M. restricta, 4 days
Type: cell-based, Malassezia restricta
run.conditions: Malassezia restricta, 96 h; Table 20; 0.5% in DMSO, 4 days; read-out: Inhibition zone diameter (mm) on M. restricta
zone of inhibition at 0.5 % values by entry
Entry rule: numbers only, all in mm.

Query: Give the reported zone of inhibition at 0.5 % for Cc1ccc2c(c1)OCC(=O)CO2 [7-methyl-2H-1,5-benzodioxepin-3(4H)-one] (system: M. restricta).
Result: 7

Continuing:
Query: What value of zone of inhibition at 0.5 % on M. restricta does CNc1ccccc1C(=O)OC [methyl 2-(methylamino)benzoate] have?
Result: 7.4

Query: Notebook entry, M. restricta assay: zone of inhibition at 0.5 % of CCCCC/C=C/C=O [(E)-2-octenal] = ?
Result: 24.8

Query: State its zone of inhibition at 0.5 % on M. restricta: CC1=CCC(C/C=C(\C)CO)C1(C)C (racemic)
Result: 7.6

Query: For the record CCCCCC/C(C=O)=C\c1ccccc1 [(2E)-2-benzylideneoctanal] , what value of zone of inhibition at 0.5 % is listed for M. restricta?
Result: 7.2

Query: Short answer please: zone of inhibition at 0.5 %, M. restricta, entry CC(=O)OCCC1=CCC2CC1C2(C)C (centres unmarked)
Result: 7.5

Query: Form field - read-out: zone of inhibition at 0.5 %; system: M. restricta; submitted item: CC1(C)C2CC=C(CCC=O)C1C2 (centres unmarked)
Result: 7.3

Query: API: value(readout= zone of inhibition at 0.5 %, system= M. restricta, query= CC(C)CCCC(C)(C)O [2,6-dimethyl-2-heptanol] )
Result: 7.7

Query: What is its zone of inhibition at 0.5 % for M. restricta? Entry: `CC1(C)CC=C(CCC=O)CC1`
Result: 8.9

Query: Enter reported zone of inhibition at 0.5 % observed with M. restricta for COC(OC)C(C)(C)CC=C(C)C [6,6-dimethoxy-2,5,5-trimethyl-2-hexene]
Result: 7.2

Query: Kindly state the measured zone of inhibition at 0.5 % obtained for CC(C=O)Cc1ccc2c(c1)OCO2 (racemic) with M. restricta.
Result: 19
